Molecular target: HCV NS3/4A protease genotype 3a (Hepatitis C virus genotype 3a, UniProt Q81495)
Assay: HCV NS3/4A protease time-resolved fluorescence (TRF) assay, Ki against genotype 3a
Quick reference for IC50 among some compounds
measured.quantity: IC50 (nM)

[
  {
    "compound": "C=C[C@@H]1C[C@]1(NC(=O)[C@@H]1C[C@]23CCc4c(c(nc5ccc(OC)cc45)CCCCC[C@@H]4C[C@H]4OC(=O)N[C@@H](C(C)(C)C)C(=O)N1C2)O3)C(=O)NS(=O)(=O)C1(C)CC1",
    "numeric.value": 0.679
  },
  {
    "compound": "Cc1nc2ccccc2c2c1O[C@]1(CC2)C[C@H]2C(=O)N[C@]3(C(=O)NS(=O)(=O)C4(C)CC4)C[C@H]3/C=C\\CCCCC[C@H](NC(=O)OC(C)(C)C)C(=O)N2C1",
    "numeric.value": 0.572
  },
  {
    "compound": "CC1(S(=O)(=O)NC(=O)[C@@]23C[C@H]2/C=C\\CCCCC[C@H](NC(=O)OC2C[C@@H]4C[C@@H]4C2)C(=O)N2C[C@@]4(CCc5c(c(C(F)(F)F)nc6ccc(OCF)cc56)O4)C[C@H]2C(=O)N3)CC1 (some centres unmarked)",
    "numeric.value": 0.206
  },
  {
    "compound": "COc1ccc2nc(C(F)(F)F)c3c(c2c1)[C@H](F)C[C@]1(C[C@H]2C(=O)N[C@]4(C(=O)NS(=O)(=O)C5(C)CC5)C[C@H]4/C=C\\CCCCC[C@H](NC(=O)OCC(C)C)C(=O)N2C1)O3",
    "numeric.value": 0.624
  },
  {
    "compound": "COc1ccc2nc(C(F)(F)F)c3c(c2c1)CC[C@]1(C[C@H]2C(=O)N[C@]4(C(=O)NS(=O)(=O)C5(C)CC5)C[C@H]4/C=C\\CCCCC[C@H](NC(=O)OC4CCOC4)C(=O)N2C1)O3 (some centres unmarked)",
    "numeric.value": 0.225
  }
]

----------
Target: HCV NS3/4A protease genotype 1b (Hepatitis C virus genotype 1b)
Experiment: HCV NS3/4A protease time-resolved fluorescence (TRF) assay, Ki against genotype 1b
Assay type: biochemical
Settings: IC50 [gt-1b] (nM), NS3/4A genotype 1b, enzyme 0.2 nM
Source text: Measuring NS3/4A Inhibitory Activity (Ki) Against Genotype 1b, Against A156T Mutants and Against Genotype 3a One assay for measuring inhibitory activity is HCV NS3 protease time-resolved fluorescence (TRF) assay as described below and in Mao et al., Anal. Biochem. 373:1-8, 2008 and International Patent Application Publication WO 2006/102087. […]

[
  {
    "compound": "CC(C)(C)OC(=O)N[C@H]1CCCCC/C=C\\[C@@H]2C[C@@]2(C(=O)NS(=O)(=O)C2(C)CC2)NC(=O)[C@@H]2C[C@]3(CCc4c(c(C(F)(F)F)nc5c(Cl)cccc45)O3)CN2C1=O",
    "unit.abbrev": "nM",
    "IC50": 0.02
  },
  {
    "compound": "Cc1nc2ccccc2c2c1O[C@]1(CC2)C[C@H]2C(=O)N[C@]3(C(=O)NS(=O)(=O)C4(C)CC4)C[C@H]3/C=C\\CCCCC[C@H](NC(=O)N3CCCC3)C(=O)N2C1",
    "unit.abbrev": "nM",
    "IC50": 0.015
  },
  {
    "compound": "Cc1nc2ccccc2c2c1O[C@@]1(C[C@H]3C(=O)N[C@]4(C(=O)NS(=O)(=O)C5(C)CC5)C[C@H]4/C=C\\CCCCC[C@H](NC(=O)OC4CC(F)(F)C4(F)F)C(=O)N3C1)CC2(F)F (some centres unmarked)",
    "unit.abbrev": "nM",
    "IC50": 0.226
  },
  {
    "compound": "Cc1nc2ccccc2c2c1O[C@]1(CC2)C[C@H]2C(=O)N[C@]3(C(=O)NS(=O)(=O)C4(C)CC4)C[C@H]3/C=C\\CCCCC[C@H](NC(=O)O[C@@H]3C[C@H]4CC[C@@H]3C4)C(=O)N2C1",
    "unit.abbrev": "nM",
    "IC50": 0.012
  },
  {
    "compound": "COc1ccc2nc(C)c3c(c2n1)CC[C@]1(C[C@H]2C(=O)N[C@]4(C(=O)NS(=O)(=O)C5(C)CC5)C[C@H]4/C=C\\CCCCC[C@H](NC(=O)OC(C)(C)C(F)(F)F)C(=O)N2C1)O3",
    "unit.abbrev": "nM",
    "IC50": 0.013
  }
]
